Measured values drawn from patent US4939173A for this set.

Measured IC50 accompanies every entry in the list below.
# Tested on: Moloney murine leukemia virus (MoLV)
# ASSAY_TEXT: in vitro XC plaque assay: inhibition of murine leukemia virus plaque growth (mouse SC-1 cells, rat XC cells)
# Format: cell-based
# STUDY_CONDITIONS: SC1, compounds added 2 hours prior to virus, read-out: IC50 (concentration giving a 50% inhibition of virus plaque growth)

Solved entries:
> print(dat)
                                   compound                          assay.system         result
1  Cc1cc(C)c(OCCCCCCO)c(C)c1 [6-(2,4,6-Trimethylphenoxy)hexan-1-ol, 6-(2,4,6-trimethylphenoxy)hexan-1-ol]  Moloney murine leukemia virus (MoLV)        5 µg/mL
2  OCCCCCCOc1ccc(Cc2ccccc2)cc1 [6-(4-Benzylphenoxy)hexan-1-ol]  Moloney murine leukemia virus (MoLV)  1 to 10 µg/mL
3  OCCCCCCOc1ccccc1 [6-Phenoxyhexan-1-ol, 6-phenoxyhexan-1-ol]  Moloney murine leukemia virus (MoLV)        1 µg/mL

Name the recorded IC50 for OCCCCOc1ccc(OCc2ccccc2)cc1 [4-(4-Benzyloxyphenoxy)butan-1-ol, 4-(4-Benzyloxyphenoxy)-butan-1-ol] .
1 to 10 µg/mL

// query IC50 value for entry OCCCCCCOc1ccc(-c2ccccc2)cc1 [6-(4-Phenylphenoxy)hexan-1-ol]
2.5 to 5 µg/mL

Entry O=C(O)CCC(=O)OCCCCCCOc1ccc(-c2ccccc2)cc1 has what IC50?
1 to 10 µg/mL

What IC50 value was documented for this compound, OCCCCCCOc1ccc2ccccc2c1 [6-(2-Naphthylenyloxy)hexan-1-ol, 6-(2-naphthylenyloxy)hexan-1-ol] ?
5 to 10 µg/mL

I am curious: what IC50 value has been reported for OCCCCCCOc1ccc(OCc2ccccc2)cc1 [6-(4-Benzyloxyphenoxy)hexan-1-ol] ?
1 to 10 µg/mL
